test-target: MAPK14 (human)
procedure-text: Inhibition of LPS Stimulated TNF Production by U937 Cells
conditions-used: concentration not given here
readout-name: inhibition (%)

O=C(NCc1[nH]nc(-c2ccc(F)cc2)c1-c1ccncc1)c1ccccc1Br; 50

(P) C[C@@H](NC(=O)c1cccc(C(F)(F)F)c1)c1[nH]nc(-c2ccc(F)cc2)c1-c1ccncc1
(Q) C[C@H](NC(=O)c1ccccc1Cl)c1[nH]nc(-c2ccc(F)cc2)c1-c1ccncc1
(R) C[C@H](NS(=O)(=O)Cc1ccccc1[N+](=O)[O-])c1[nH]nc(-c2ccc(F)cc2)c1-c1ccncc1
INPUT: Rank the items in ascending order with respect to inhibition. Lab note: final answer is the ordered label list.
OUTPUT: P, Q, R

(1) CN(C)c1cccc2c(S(=O)(=O)N3CCC(c4[nH]nc(-c5ccc(F)cc5)c4-c4ccncc4)CC3)cccc12
(2) CC1(C)[C@@H]2CC[C@]1(CS(=O)(=O)NCCCc1[nH]nc(-c3ccc(F)cc3)c1-c1ccncc1)C(=O)C2
(3) Cc1c(C)c(S(=O)(=O)N[C@@H](C)c2[nH]nc(-c3ccc(F)cc3)c2-c2ccncc2)c(C)c2c1OC(C)(C)CC2
INPUT: Order the records by inhibition, with each subsequent value no larger than the one before. Rank them, then answer with their labels in that order.
OUTPUT: 3, 2, 1
